# target.or.test.system: recombinant human FGFR3 (amino acids R397-T806) (Homo sapiens (Human), UniProt P22607)
# Sequence (P22607 397-806): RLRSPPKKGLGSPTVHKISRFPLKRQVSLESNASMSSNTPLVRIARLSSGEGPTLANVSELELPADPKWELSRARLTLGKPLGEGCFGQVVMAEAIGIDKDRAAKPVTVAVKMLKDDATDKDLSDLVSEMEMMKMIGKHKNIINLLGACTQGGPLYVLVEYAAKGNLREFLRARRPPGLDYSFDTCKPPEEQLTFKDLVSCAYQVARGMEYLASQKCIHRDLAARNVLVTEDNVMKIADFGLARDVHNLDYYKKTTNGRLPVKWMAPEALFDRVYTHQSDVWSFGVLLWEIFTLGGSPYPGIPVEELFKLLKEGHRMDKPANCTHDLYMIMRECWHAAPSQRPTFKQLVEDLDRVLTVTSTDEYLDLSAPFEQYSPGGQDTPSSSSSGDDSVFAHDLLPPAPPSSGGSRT
# assay.notes: FGFR3 enzyme activity assay (LanthaScreen TR-FRET)
# protocol.conditions: 25 μM ATP, 10 min incubation at 22° C., average of multiple determinations if made, read-out: FGFR3 Enz FRET IC50
pIC50: −log10 of the molar value.
Mark Fulfilled for reported pIC50 of 8 or greater; mark Not fulfilled for anything smaller.

Qu. Tell me whether pIC50 is at least 8 here: C=CC(=O)N1CC(C(=O)N2C3CC2CN(c2ccc(-c4cc(OC)c5c(C#N)cnn5c4)cn2)C3)C1 [Example 52]
Ans. Not fulfilled

Qu. Tell me whether pIC50 is at least 8 here: C=CC(=O)N[C@H]1C[C@H](C(=O)N2CC[C@H](n3cc(-c4cc(OC)c5c(C#N)cnn5c4)cn3)C2)C1 [Example 74]
Ans. Fulfilled

Qu. Tell me whether pIC50 is at least 8 here: COc1cc(-c2cnn(C3CCN(C(=O)C4(OC)CN(C(=O)/C=C/CN(C)C)C4)CC3)c2C)cn2ncc(Cl)c12 [Example 171]
Ans. Not fulfilled

Qu. Tell me whether pIC50 is at least 8 here: C#CC(=O)N1CC(C(=O)N2CCC(n3cc(-c4cc(OC)c5c(C#N)cnn5c4)cn3)CC2)C1 [Example 138]
Ans. Fulfilled
